These entries and their values trace back to the supplement of paper PMC7125110.

B1: glmS ribozyme (parent)
chain: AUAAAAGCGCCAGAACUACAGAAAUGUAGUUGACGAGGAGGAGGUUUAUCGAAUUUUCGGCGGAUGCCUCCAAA

- Variants of: B1
- assay: self-cleavage kobs at 10000 uM GlcN6P; higher = faster cleavage; RNA array
- reported conditions: with glucosamine-6-phosphate
Variants at the floor of the assay were thinned out.
Here, each record is paired with measured self-cleavage kobs at 10000 uM GlcN6P data.

sequence_variant="G13C G38U A48U C50A" readout_label="self-cleavage kobs at 10000 uM GlcN6P" result="< 1e-05 s⁻¹"
sequence_variant="A48U U57G" readout_label="self-cleavage kobs at 10000 uM GlcN6P" result="< 1e-05 s⁻¹"
sequence_variant="C8A A48C G59U" readout_label="self-cleavage kobs at 10000 uM GlcN6P" result="< 1e-05 s⁻¹"
sequence_variant="A12C C34G" readout_label="self-cleavage kobs at 10000 uM GlcN6P" result="< 1e-05 s⁻¹"

Input line: Any idea what self-cleavage kobs at 10000 uM GlcN6P was measured for U45A G59U C70G ?
Output line: < 1e-05 s⁻¹

Input line: Any idea what self-cleavage kobs at 10000 uM GlcN6P was measured for G51U A64U ?
Output line: < 1e-05 s⁻¹
